Where these numbers come from: patent US20210246166A1

# measuredOn: T1, recombinant rat MASP1 active protease (amino acids 302-704, C-terminal His Tag) (rat, UniProt Q8CHN8 302-704)
# T1 sequence: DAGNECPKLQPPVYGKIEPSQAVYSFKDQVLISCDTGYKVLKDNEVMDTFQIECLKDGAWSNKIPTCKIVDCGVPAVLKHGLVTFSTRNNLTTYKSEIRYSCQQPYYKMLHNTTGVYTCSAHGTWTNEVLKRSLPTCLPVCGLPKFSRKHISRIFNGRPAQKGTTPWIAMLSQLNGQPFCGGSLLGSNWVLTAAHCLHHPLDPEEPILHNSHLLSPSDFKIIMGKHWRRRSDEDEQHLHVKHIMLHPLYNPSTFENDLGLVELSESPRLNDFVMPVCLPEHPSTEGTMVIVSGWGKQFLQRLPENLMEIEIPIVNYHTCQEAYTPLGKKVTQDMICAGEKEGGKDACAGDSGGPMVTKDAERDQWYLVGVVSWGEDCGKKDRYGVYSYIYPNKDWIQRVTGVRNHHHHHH
# assayText: cell-based or functional assay
Bridge positions count the residues as written; N and C are the ends. Square brackets hold non-standard residues; d marks the D form. Ends that are not written are not given here. Phe(2-Br) = N[C@@H](Cc1ccccc1Br)C(=O)O; NMeI = CC[C@H](C)[C@H](NC)C(=O)O; Pen = CC(C)(S)[C@H](N)C(=O)O
property: rat MASP1 IC50 (µM)
Numbers only, in µM.

Ac-G[NMeI]CSRSLPPICIPD-OH (disulfide 3-11; SMILES CC[C@H](C)[C@@H]1NC(=O)[C@@H]2CCCN2C(=O)[C@@H]2CCCN2C(=O)[C@H](CC(C)C)NC(=O)[C@H](CO)NC(=O)[C@H](CCCNC(=N)N)NC(=O)[C@H](CO)NC(=O)[C@@H](NC(=O)[C@H]([C@@H](C)CC)N(C)C(=O)CNC(C)=O)CSSC[C@@H](C(=O)N[C@H](C(=O)N2CCC[C@H]2C(=O)N[C@@H](CC(=O)O)C(=O)O)[C@@H](C)CC)NC1=O) [Example 59: Ac-G-((N-Me)I)-C+SRSLPPIC+IPD-OH] = 0.25

Now, please, on to the next binder.
stdin: Indicate its recorded rat MASP1 IC50; the binder in question is AICSRS[Phe(2-Br)]PPI[Pen]IPD-NH2 (disulfide 3-11; N-terminus assumed; SMILES CC[C@H](C)[C@H](NC(=O)[C@H](C)N)C(=O)N[C@H]1CSSC(C)(C)[C@@H](C(=O)N[C@H](C(=O)N2CCC[C@H]2C(=O)N[C@@H](CC(=O)O)C(N)=O)[C@@H](C)CC)NC(=O)[C@H]([C@@H](C)CC)NC(=O)[C@@H]2CCCN2C(=O)[C@@H]2CCCN2C(=O)[C@H](Cc2ccccc2Br)NC(=O)[C@H](CO)NC(=O)[C@H](CCCNC(=N)N)NC(=O)[C@H](CO)NC1=O) [Example 104: AIC+SRS-((2-Bromo)F)-PPI-(Pen)+IPD-NH2]
stdout: 0.077
